Values compiled from ChEMBL document CHEMBL1201862.

System: MDA-N
ASSAY TEXT: NCI tumour cell line growth inhibition, 48 h
Calls of active or inactive are those of the source. Cut-off read from the data, not from the text of the source: active = GI50 up to about 1.1 µM and inactive = higher.
Return exactly one item of Yes = active, No = inactive

Past entries and their recorded results:
| COMPOUND | GROUP LABEL |
| --- | --- |
| COc1ccc(O)c(/C=N/CCC/N=C/c2cc(OC)ccc2O)c1 | No |
| NC(=S)Nc1nc(=S)[nH]c2c1SC1=N/C(=C\c3ccco3)C(=O)N12 | No |
| O=C1CC2OCC=C3CN4CCC5(C(=O)O)C(N1)C2C3CC45 (stereo unspecified) | No |
| CC(=O)N1C(CCc2ccccc2)CC(C)(C=O)C1Cc1ccc(O[Si](C(C)C)(C(C)C)C(C)C)cc1 (stereo unspecified) | No |

Request: Given Cc1c(C)c2c(c(N)c1C#N)C(=O)N(NC(=S)Nc1ccccc1)C2=O , state the outcome it received in this test.
Response: No

Request: Hello, I am checking results. What call was entered for COc1ccc2nc3cccc([N+](=O)[O-])c3c(NCCO)c2c1 ?
Response: Yes

Request: Hi team, can someone confirm the assay call for Cc1ccc(Nc2nc(NNC(=O)Cc3ccccc3)nc(NNC(=O)c3ccncc3)n2)cc1 ?
Response: No

Request: For this compound, state the assay outcome: CC(C)(C)c1ccc(O)c(CN(Cc2cc(C(C)(C)C)ccc2O)c2ccccc2)c1
Response: No

Request: Fill in: this test's call for OCCCNCc1ccncc1 is ___
Response: No

Request: Short answer needed: outcome of this test for O=C(CCCN1CCC2(CC1)OC(=O)N(c1ccccc1)C2=O)c1ccccc1 ?
Response: No

Request: Hi, do you know how COc1ccc(C(SCCO)(c2ccc(OC)cc2)c2ccc(OC)cc2)cc1 came out in this test?
Response: No

====

Tested on: NCI-H522
ASSAY TEXT: NCI tumour cell line growth inhibition, 48 h
Active and inactive are the calls of the source. Rule as the data show it: active = GI50 up to about 1.1 µM and inactive = higher.
VALUE TYPE: GI50

These recorded examples may help you get a feel for the data.
| COMPOUND | GI50 |
| --- | --- |
| CCN(CCCOc1ccccc1)CCN(CC)CCCOc1ccccc1 | 14.2 µM (inactive) |
| OCC1OC(c2nc(C3=NCCCN3)cs2)C(O)C1O (stereo unspecified) | > 100 µM (inactive) |

Moving on to the next compound.
For reference, reported GI50 for Cc1ccc([N+](=O)[O-])cc1NC(=O)C(=O)Cc1cc(=O)oc2cc(O)ccc12 stands at > 100 µM (inactive)

====

Tested on: UO-31
ASSAY TEXT: NCI tumour cell line growth inhibition, 48 h
The source made the active and inactive calls. Rule as the data show it: active = GI50 up to about 1.1 µM and inactive = higher.
Please reply with one of these outcomes: T for active, F for inactive

# count of solved cases: 2
| COMPOUND | TESTED TARGET | GROUP LABEL |
| --- | --- | --- |
| O=C1ON=C2C3CC4CC12CC1(C3)C(=O)ON=C41 | UO-31 | F |
| Cc1ccc(NC(=O)SCCC(=O)O)cc1NC(=O)SCCC(=O)O | UO-31 | F |

Request: Hello, I am checking results. What call was entered for Cc1c2cnccc2c(C)c2c1c1ccccc1n2CCCN ?
Response: T

Request: Called result for C/C1=C/C(=O)O[C@@H]2C[C@@H](CC[C@H](C)/C=C\C=C\CC1)O[C@@](O)([C@@H]1CSC(=O)N1)C2
Response: T

Request: Please let me know the test result on file for NC(Cc1ccc(CP(=O)(O)O)cc1)C(=O)O (stereo not given) .
Response: F

Request: Would you mind telling me which call this test gave O=C(CCCN1CCC2(CC1)OC(=O)N(c1ccccc1)C2=O)c1ccccc1 ?
Response: F

Request: Recorded test outcome, item CCOC(=O)C1(Br)C(c2ccccc2)NC(=O)NC1(C)Br (stereo not given)
Response: F

Request: Write down the call the test reported for this compound. Item: CCCCCCCN(CCCCCCC)CC(O)c1cc2ccccc2c2cc(Br)ccc12 (stereo not given)
Response: F

Request: Outcome? CCOc1c(Cc2ccccc2)c(=O)n2c3ccccc3n3c(=O)n(C)c(=O)c1c23
Response: F

Request: Which outcome was assigned to C#CC[C@]12CC(=O)CC[C@H]1CC(=O)C2 in this test?
Response: F

====

Test system: K562
ASSAY TEXT: NCI tumour cell line growth inhibition, 48 h
Calls of active or inactive are those of the source. Cut-off read from the data, not from the text of the source: active = GI50 up to about 1.1 µM and inactive = higher.
Classes to choose from: label 1 for active, label 0 for inactive

| COMPOUND | GROUP LABEL |
| --- | --- |
| CN(/N=C/c1cccc2cccnc12)c1ccc([N+](=O)[O-])cc1 | label 0 |
| C[P+]1(c2ccccc2)CCCCC1 | label 0 |

Request: Write down the call the test reported for this compound. Item: O=C1/C(=C/c2ccccc2)CN(C(=O)Oc2ccc(Cl)cc2)C/C1=C\c1ccccc1
Response: label 0

Request: # fetch the recorded call for CCOC(=O)/C=C/CC(C)(C)COC(C)=O here
Response: label 0

====

System: OVCAR-3
ASSAY TEXT: NCI tumour cell line growth inhibition, 48 h
The source made the active and inactive calls. No stated cut-off is given here; in the data, active = GI50 up to about 1.1 µM and inactive = higher.
Select the matching outcome among active, inactive

| COMPOUND | GROUP LABEL |
| --- | --- |
| CC(=O)OCCOCNC(=S)N/N=C/c1cc([N+](=O)[O-])ccc1O | inactive |
| C/C(=C1/N=C(c2ccccc2)OC1=O)c1ccccc1 | inactive |
| COc1ccc(Cc2nc3cc(Cl)ccc3o2)cc1 | inactive |
| Brc1ccc(/N=N/N2CCCCC2)cc1 | inactive |
| CC1(C)S[C@@H]2[C@H](NC(=O)C3(N)CCCCC3)C(=O)N2[C@H]1C(=O)O [CYCLACILLIN] | inactive |

Request: Outcome? CC(=O)Nc1ccccc1S(=O)(=O)c1c(-c2c(C)c(Cl)c(C)c(Cl)c2C)noc1C
Response: inactive

Request: GET /call?item= COc1cc(C2C3=C(COC3=O)Oc3cc4c(cc32)OCO4)ccc1O (stereo unspecified) returns the recorded outcome of this test.
Response: active

Request: Fill in: this test's call for CCOC(=O)/C=C/CC(C)(C)COC(C)=O is ___
Response: inactive

Request: Returns: the outcome recorded for C[N+]1(C)C2Cc3ccccc3C1Cc1ccccc12 in this assay.
Response: inactive

Request: For NCCCN(CCCCN(CCCN)C(=O)OCc1ccccc1)C(=O)OCc1ccccc1 , which call appears in the assay record?
Response: inactive

Request: Hi, sorry to bother you, what did the test record for C(=N\OCc1ccccc1)/c1ncccc1C1OCCO1 ?
Response: inactive

====

Tested on: OVCAR-3
ASSAY TEXT: NCI tumour cell line growth inhibition, 48 h
The source made the active and inactive calls. Cut-off read from the data, not from the text of the source: active = GI50 up to about 1.1 µM and inactive = higher.
I would appreciate it if you answered using one of these outcomes: active, inactive

| MOLECULE | GROUP LABEL |
| --- | --- |
| O=C(O)c1c(CC(Cc2ccc3c(c2)CCC3)C(=O)O)ccc2c1CCC2 (configuration not stated) | inactive |
| O=C1NC(=O)C2=C1CCC2O (configuration not stated) | inactive |
| NC(=S)Nc1nc(=S)[nH]c2c1SC1=N/C(=C\c3ccco3)C(=O)N12 | inactive |
| O=C(CCc1nnc(S)[nH]1)Nc1cccc(C(F)(F)F)c1 | inactive |
| CCC12C=CCN3CC[C@]4(C(=C(C(=O)OC)[C@@H]1Nc1ncnc5c1ncn5C1OC(COC(C)=O)C(OC(C)=O)C1OC(C)=O)Nc1ccccc14)C32 (some centres not stated) | inactive |

We now examine a further molecule.
Request: Short answer needed: outcome of this test for O=C(CSc1nc(-c2ccccc2)c(-c2ccccc2)[nH]1)N/N=C/c1ccc([N+](=O)[O-])cc1 ?
Response: inactive

====

Tested on: SK-MEL-28
ASSAY TEXT: NCI tumour cell line growth inhibition, 48 h
The source made the active and inactive calls. Cut-off read from the data, not from the text of the source: active = GI50 up to about 1.1 µM and inactive = higher.
As shown below, each of these molecules has a reported GI50 value.

| CHEMICAL SMILES | VALUE TYPE | ENDPOINT RESULT |
| --- | --- | --- |
| CCN(CCCOc1ccccc1)CCN(CC)CCCOc1ccccc1 | GI50 | 15.1 µM (inactive) |
| COC(c1cccc(C(O)(C(F)(F)F)C(F)(F)F)c1)(C(F)(F)F)C(F)(F)F | GI50 | > 10 µM (inactive) |
| C(=N\OCc1ccccc1)/c1ncccc1C1OCCO1 | GI50 | > 100 µM (inactive) |

Form field GI50, entry Ic1cc2c(cc1C1SCCCS1)OCO2 : > 100 µM (inactive)

Lab note: measured GI50 of Cc1cc(S(=O)(=O)Nc2nc(-c3ccccn3)n[nH]2)c(S)cc1Cl was 35.1 µM (inactive)

Form field GI50, entry CCCCC#C[I+]c1ccccc1 : 17 µM (inactive)

====

Listed here: items and their measured GI50.
Tested on: SF-295
ASSAY TEXT: NCI tumour cell line growth inhibition, 48 h
Activity calls are given as the source filed them. Cut-off read from the data, not from the text of the source: active = GI50 up to about 1.1 µM and inactive = higher.

| COMPOUND | TESTED TARGET | GI50 |
| --- | --- | --- |
| C=CCOC(=O)C1=C(CCC[C@@H](C)O[Si](C)(C)C(C)(C)C)N=C(N)N2[C@H](CCO)CC[C@@H]12 | SF-295 | 12.6 µM (inactive) |
| CCC12C=CCN3CC[C@]4(C(=C(C(=O)OC)[C@@H]1Nc1ncnc5c1ncn5C1OC(COC(C)=O)C(OC(C)=O)C1OC(C)=O)Nc1ccccc14)C32 (stereo not given in full) | SF-295 | 3.05 µM (inactive) |
| CC(C)C[S+]1C2=C(CC(C)(C)CC2=O)[N-]c2ccccc21 (stereo not given) | SF-295 | > 100 µM (inactive) |
| Oc1ccc2ccccc2c1/N=N/c1cc(Cl)ccc1Cl | SF-295 | 9.73 µM (inactive) |

Attention now turns to another entry.
Bench note, SF-295: Cc1cc(OCc2nn(CN3CCN(C)CC3)c(=S)n2/N=C/c2ccc(-c3ccc(Cl)cc3Cl)o2)ccc1Cl , GI50 reads 84.1 µM (inactive)
